- Test system: Raji
- Protocol Description: Cytostatic activity against proliferation of Raji/0 cells
- Assay type: functional
- Test Settings: Homo sapiens, read-out: ID50 (the source's name)
Value Type: IC50 (µg/mL)
The answer is to be given in µg/mL; state only the numeric part.

Entry under test: CCCCc1cn([C@H]2C[C@@H]3OP(=O)(O)OC[C@H]3O2)c(=O)[nH]c1=O.N . Its IC50 was 82

Entry under test: CCCCCc1cn([C@H]2C[C@H](O)[C@@H](CO)O2)c(=O)[nH]c1=O . Its IC50 was 334

Entry under test: CCCCCCCCc1cn([C@H]2C[C@@H]3OP(=O)(O)OC[C@H]3O2)c(=O)[nH]c1=O.N . Its IC50 was 165

Entry under test: CCCCCCCCc1cn([C@H]2C[C@H](O)[C@@H](CO)O2)c(=O)[nH]c1=O . Its IC50 was 52

Data credit: ChEMBL document CHEMBL1123153
